Target: T1, cMetECDHis (human, UniProt P08581 25-932, limits assumed, biotinylated in the cross-block ELISA of Example 17)
T1 construct: Expressed in HEK-293F cells; also called soluble cMetECDHis; biotinylated cMetECDHis
Experiment: cross-block ELISA; competitor G11-HZ

binder	residual binding, % of no competitor / %
anti-c-Met HuMab 181 (IgG1) (antibody, V domains shown, also called TH1016-181; PC1016-181) VH: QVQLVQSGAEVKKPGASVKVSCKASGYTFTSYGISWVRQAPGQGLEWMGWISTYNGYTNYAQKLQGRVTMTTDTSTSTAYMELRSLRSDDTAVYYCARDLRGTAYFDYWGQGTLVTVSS VL: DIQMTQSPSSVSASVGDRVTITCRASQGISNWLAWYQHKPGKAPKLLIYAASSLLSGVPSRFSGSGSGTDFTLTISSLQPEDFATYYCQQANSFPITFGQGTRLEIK	98.7
IgG1-024 (antibody, V domains shown, also called TH1016-024; PC1016-024) VH: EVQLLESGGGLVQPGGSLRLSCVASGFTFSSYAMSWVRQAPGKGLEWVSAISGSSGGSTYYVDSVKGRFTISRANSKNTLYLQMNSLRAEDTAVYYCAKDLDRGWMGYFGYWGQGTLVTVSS VL: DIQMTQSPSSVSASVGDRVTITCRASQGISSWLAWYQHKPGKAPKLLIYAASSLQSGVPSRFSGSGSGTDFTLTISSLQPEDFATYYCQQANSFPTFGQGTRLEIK	98.2
anti-c-Met HuMab 006 (IgG1) (antibody, V domains shown, also called TH1016-006; PC1016-006) VH: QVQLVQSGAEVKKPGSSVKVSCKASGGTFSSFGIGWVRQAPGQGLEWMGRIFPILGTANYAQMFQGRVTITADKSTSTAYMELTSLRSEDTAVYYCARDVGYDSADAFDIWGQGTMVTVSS VL: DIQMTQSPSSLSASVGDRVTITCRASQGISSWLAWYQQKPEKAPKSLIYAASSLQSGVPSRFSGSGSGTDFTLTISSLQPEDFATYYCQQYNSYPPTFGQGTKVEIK	54
anti-c-Met HuMab 035 (IgG1) (antibody, V domains shown, also called P1016-035; TH1016-035-D09) VH: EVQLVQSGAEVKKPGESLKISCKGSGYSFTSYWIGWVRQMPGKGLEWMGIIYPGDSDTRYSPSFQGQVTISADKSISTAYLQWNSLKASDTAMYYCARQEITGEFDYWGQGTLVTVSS VL: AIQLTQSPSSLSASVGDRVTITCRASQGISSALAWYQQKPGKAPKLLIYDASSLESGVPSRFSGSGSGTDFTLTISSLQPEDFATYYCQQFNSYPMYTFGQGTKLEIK	7.8
